- target_or_system: ENAH EVH1 (Homo sapiens, UniProt Q8N8S7)
- Sequence (Q8N8S7 whole entry): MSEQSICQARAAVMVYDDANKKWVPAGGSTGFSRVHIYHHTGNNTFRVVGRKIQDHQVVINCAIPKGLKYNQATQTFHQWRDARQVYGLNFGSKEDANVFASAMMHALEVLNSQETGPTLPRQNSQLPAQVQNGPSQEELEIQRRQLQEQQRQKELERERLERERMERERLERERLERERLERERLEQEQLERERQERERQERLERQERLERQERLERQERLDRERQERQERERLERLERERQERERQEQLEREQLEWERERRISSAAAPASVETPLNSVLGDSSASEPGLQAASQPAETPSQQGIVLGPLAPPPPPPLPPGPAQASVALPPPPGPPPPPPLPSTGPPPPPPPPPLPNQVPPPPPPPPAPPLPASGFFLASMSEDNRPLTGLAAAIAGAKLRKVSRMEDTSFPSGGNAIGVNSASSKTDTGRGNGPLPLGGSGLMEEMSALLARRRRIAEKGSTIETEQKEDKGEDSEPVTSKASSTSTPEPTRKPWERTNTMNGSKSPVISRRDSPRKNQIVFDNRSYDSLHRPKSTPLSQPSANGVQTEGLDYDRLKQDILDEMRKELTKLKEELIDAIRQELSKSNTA
- method: other fluorescence titration
readout_kind: Kd (µM)

INSERT INTO assay_data (binder, observed_result) VALUES
  ('Ac-SFEFPPPPTEDEL-NH2 [wt2, Ac-…-NH2]', 13);
